biological target: c-kit mutant D816V (Homo sapiens, UniProt P10721, D816V/DEL694-753); construct: residues 551-934, kinase insertion domain residues 694-753 deleted; 6x-histidine (N); made in house; host or cells: E. coli Arctic Express (DE3) RIL (Stratagene); assay: c-Kit mutant D816V biochemical assay, AlphaScreen; conditions: c-kit D816V biochemical inhibitory activity; read-out: Biochemical activity (IC50 μM) Kit D816V
Sequence (P10721 with tags, fused parts or gaps DEL694-753/D816V): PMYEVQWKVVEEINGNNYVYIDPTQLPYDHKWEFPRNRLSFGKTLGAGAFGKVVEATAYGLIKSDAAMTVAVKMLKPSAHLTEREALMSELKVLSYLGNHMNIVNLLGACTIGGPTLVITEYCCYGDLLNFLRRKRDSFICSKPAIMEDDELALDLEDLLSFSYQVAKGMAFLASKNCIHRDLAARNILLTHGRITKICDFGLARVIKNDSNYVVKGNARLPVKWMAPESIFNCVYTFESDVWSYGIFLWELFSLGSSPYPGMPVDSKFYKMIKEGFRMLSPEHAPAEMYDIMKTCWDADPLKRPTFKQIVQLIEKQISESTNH
Property name: IC50

[
  {
    "Molecule": "O=C(NCc1cccc(OC(F)(F)F)c1)N1CCN(c2ncnc3[nH]c(-c4ccc(F)cc4)cc23)CC1 [P-0076]",
    "IC50": "1 to 10 µM"
  },
  {
    "Molecule": "Cc1cc2c(-c3ccc(NS(=O)(=O)c4ccc(OC(F)F)cc4)c(F)c3)ncnc2[nH]1 [P-0360]",
    "IC50": "10 to 200 µM"
  },
  {
    "Molecule": "C[C@@H]1CN(c2ncnc3[nH]c(-c4ccc(F)cc4)cc23)CCN1C(=O)N[C@H](C)c1ccc(F)cc1 [P-0034]",
    "IC50": "1 to 10 µM"
  }
]

Shifting focus to the molecule that follows.
Asked: Provide only the value of recorded IC50 for Cc1ccc(NC(=O)N2CCN(c3ncnc4[nH]c(-c5ccncc5)cc34)C[C@@H]2C)cn1 [P-0039]
Given back: 1 to 10 µM

All values here come from patent US10227357B2.
